# System: MOLT-4
# Test Details: NCI tumour cell line growth inhibition, 48 h
Calls of active or inactive are those of the source. Cut-off read from the data, not from the text of the source: active = GI50 up to about 1.1 µM and inactive = higher.
Reported GI50 by item:

// known answers, use as guide
compound=O=[N+]([O-])c1ccc(O)c(/C=N/NC(=S)N2CCCCC2)c1 test_target=MOLT-4 endpoint_value="1.34 µM (inactive)"
compound="CC(C)CCCC(C)[C@H]1CCC2[C@H]3C(CC[C@@]21C)[C@@]1(C)CCC=C[C@]12C[C@@H]2[C@@H]3O (stereo not given in full)" test_target=MOLT-4 endpoint_value="> 100 µM (inactive)"
compound=O=C(Nc1ccc2oc(=O)c(C(=O)O)cc2c1)Oc1ccccc1 test_target=MOLT-4 endpoint_value="> 100 µM (inactive)"
compound=CCCCCC(=O)Nc1[nH]cnc1C(N)=O test_target=MOLT-4 endpoint_value="> 100 µM (inactive)"

// next item, GI50 requested
Observed GI50 on MOLT-4 for CNC1=Nc2ccccc2C(=S)N2CSC[C@@H]12 , please.
> 100 µM (inactive)

---

# System: OVCAR-4
# Test Details: NCI tumour cell line growth inhibition, 48 h
Active and inactive are the calls of the source. Rule as the data show it: active = GI50 up to about 1.1 µM and inactive = higher.
Assay Readout: GI50

// known answers, use as guide
compound=c1ccc2c(c1)[nH]c1c3ccccc3sc21 endpoint_value="> 100 µM (inactive)"
compound="CC(C)C(Br)CC/C(CBr)=C(\\Cl)CCl (stereo not given)" endpoint_value="2.5 µM (inactive)"
compound=COC(=O)c1cccc2c3ccccc3c3ccccc3c12 endpoint_value="64.3 µM (inactive)"
compound=CC(C)=CCC/C(C)=C/CC/C(C)=C/CC/C(C=O)=C/CC/C(C)=C\CC/C(C)=C/CC/C(C)=C/CC/C(C)=C/CC1=CC(=O)C=CC1=O endpoint_value="> 100 µM (inactive)"
compound=CN(C)CCNc1nc(-c2cccs2)cc(-c2cccs2)n1 endpoint_value="> 10 µM (inactive)"

Please give the measured GI50 for this compound: C=C1CC[C@@H]2C(C)(C)C(O)CCC2(C)C1COc1ccc2ccc(=O)oc2c1 (stereo not given in full)
13.5 µM (inactive)

Please give the measured GI50 for this compound: O=C(O)C1OC1(c1cccc(Cl)c1)c1ccccc1Cl (stereo not given)
23.5 µM (inactive)

Please give the measured GI50 for this compound: COC(=O)[C@H](NC(=O)OC(C)(C)C)[C@H]1COC(C)(C)O1
> 100 µM (inactive)

Please give the measured GI50 for this compound: CN(C)c1ccc(/C=C2\C[C@H]3[C@@H]4CC=C5C[C@@H](O)CC[C@]5(C)[C@H]4CC[C@]3(C)C2=O)cc1
18.1 µM (inactive)

Please give the measured GI50 for this compound: CCCCCCC(C)CCCCCCCCCCC(=O)O (stereo not given)
> 100 µM (inactive)

---

# Tested on: MDA-MB-231
# Test Details: NCI tumour cell line growth inhibition, 48 h
The source made the active and inactive calls. Cut-off read from the data, not from the text of the source: active = GI50 up to about 1.1 µM and inactive = higher.
The categories you may choose from are 1 (active), 0 (inactive)

Solved cases (7 shown):
molecule=O=C(Nc1ccc(Cl)cc1Cl)C1C(=O)OC2(CCCCC2)OC1=O category=0
molecule=CC(=O)O[C@H]1C(=O)[C@@]2(C)[C@H]([C@H](OC(=O)c3ccccc3)[C@]3(O)C[C@H](OC(=O)[C@H](O)[C@@H](NC(=O)c4ccc(N(C)C)cc4)c4ccccc4)C(C)=C1C3(C)C)[C@]1(OC(C)=O)CO[C@@H]1C[C@@H]2O category=1
molecule=Cc1sccc1C(=S)Nc1ccc(Cl)c(/C=N/OC(C)(C)C)c1 category=0
molecule="CCCCCc1cc2cc3c(c(O)c2c(=O)[nH]1)C1(CCC3)C(=O)c2c(O)c3c(c(O)c2C1=O)C(=O)C(OC)=CC3=O (stereo not drawn)" category=1
molecule="COC(=O)C1=C(O)C(C(=O)OC)[C@@]2(O)[C@@H](C(=O)OC)[C@H](C)C[C@@H]1[C@@H]2C(=O)OC (stereo partly drawn)" category=0
molecule=CCOC(=O)c1nc2ccc(C(F)(F)F)cc2nc1Nc1ccc(OC)c(OC)c1 category=0
molecule="O=C1/C(=C/c2ccc(O)cc2)CCC1CNc1ccc(Cl)cc1 (stereo not drawn)" category=0

Assay result, entry N#Cc1cnn2cc[nH]c12 — outcome?
0

---

# Test system: SK-MEL-28
# Test Details: NCI tumour cell line growth inhibition, 48 h
The source made the active and inactive calls. Rule as the data show it: active = GI50 up to about 1.1 µM and inactive = higher. Where a SMILES comes first, the peptide text is derived from it. [ ]: non-standard residue; d: D form. The star is where a group is joined. Phe(4-NO2) = N[CH](Cc1ccc([N+](=O)[O-])cc1)C(=O)O; Boc = CC(C)(C)OC(=O)*; OtBu = CC(C)(C)O*
Assay Readout: GI50

// known answers, use as guide
molecule=NS(=O)(=O)c1nnc(NC(=O)/C=C/C(=O)O)s1 test_target=SK-MEL-28 assay_readout=GI50 endpoint_value="> 100 µM (inactive)"
molecule=O=C(Nc1ccccc1F)c1cc2ccc(O)cc2o/c1=N\c1cccc(F)c1 test_target=SK-MEL-28 assay_readout=GI50 endpoint_value="12.3 µM (inactive)"
molecule=Cn1c2ccc(F)cc2c2ccc3c(c21)C(=O)C=CC3=O test_target=SK-MEL-28 assay_readout=GI50 endpoint_value="13.8 µM (inactive)"
molecule=O=c1c2cc(-c3ccccc3)cnc2sn1-c1ccc(Br)cc1 test_target=SK-MEL-28 assay_readout=GI50 endpoint_value="> 100 µM (inactive)"
molecule=COc1ccc(/C=N\NC(=O)Nc2cccc3ccccc23)cc1 test_target=SK-MEL-28 assay_readout=GI50 endpoint_value="> 100 µM (inactive)"
molecule=Cc1cccc(C(C)(C)C)c1NC(=O)CCl test_target=SK-MEL-28 assay_readout=GI50 endpoint_value="> 100 µM (inactive)"

Please give the measured GI50 for this molecule: O=C(NCCO)Nc1c(C(F)(F)F)cc(-c2ccccc2)[nH]c1=O
> 100 µM (inactive)

Please give the measured GI50 for this molecule: CC(=O)NC(CCC(=O)OC(C)(C)C)C(=O)NC(CCC(=O)OC(C)(C)C)C(=O)NC(Cc1ccc([N+](=O)[O-])cc1)C(=O)NC(CCCCNC(=O)OC(C)(C)C)C(=O)NC(CCCCNC(=O)OC(C)(C)C)C(=O)NCC(=O)O (configuration not stated) (Ac-E(OtBu)E(OtBu)[Phe(4-NO2)]K(Boc)K(Boc)G-OH; configuration not given here)
> 100 µM (inactive)

Please give the measured GI50 for this molecule: CC(=O)O[C@H]1C(=O)[C@@]2(C)[C@H]([C@H](OC(=O)c3ccccc3)[C@]3(O)C[C@H](OC(=O)[C@H](O)[C@@H](NC(=O)c4ccc(N(C)C)cc4)c4ccccc4)C(C)=C1C3(C)C)[C@]1(OC(C)=O)CO[C@@H]1C[C@@H]2O
> 50 µM (inactive)

Please give the measured GI50 for this molecule: CC1(C)CN=C(Nc2ccc(F)c(Cl)c2)S1
> 100 µM (inactive)

Please give the measured GI50 for this molecule: CS/C(Nc1ccccc1)=C1\C(=O)N(c2ccccc2)N=C1C
> 100 µM (inactive)

Please give the measured GI50 for this molecule: O=C1C(=O)N(C2CCCCC2)C(=S)N1C1CCCCC1
> 100 µM (inactive)

Please give the measured GI50 for this molecule: COC(=O)CC1NC(=O)C1C1(C)OCCO1 (configuration not stated)
> 100 µM (inactive)

Please give the measured GI50 for this molecule: CC(=O)c1cccc(Nc2nc3ccccc3c3occc23)c1
27.3 µM (inactive)

Please give the measured GI50 for this molecule: CCN(CC)CCN1C=CC(C)C(C(=O)O)C1C(N)=O (configuration not stated)
> 100 µM (inactive)

Please give the measured GI50 for this molecule: Cc1ccc(/N=N/N(C)C(C)C(O)Cc2ccccc2)cc1 (configuration not stated)
65.8 µM (inactive)

Please give the measured GI50 for this molecule: C[N+](C)([O-])C12CC3CC(CC(C3)C1)C2
32.4 µM (inactive)

Please give the measured GI50 for this molecule: N#Cc1cnn2cc[nH]c12
> 100 µM (inactive)

Please give the measured GI50 for this molecule: O=c1c2ccccc2c(=O)n2n1CC=CC2
> 100 µM (inactive)

Please give the measured GI50 for this molecule: O=c1c2cc([N+](=O)[O-])cnc2sn1-c1ccc([N+](=O)[O-])cc1
82.4 µM (inactive)

Please give the measured GI50 for this molecule: CSC(=S)N(C)NC(=O)c1cccc(C(=O)NN(C)C(=S)SC)n1
15.4 µM (inactive)

Please give the measured GI50 for this molecule: NCC(O)CNC(=O)c1ccc(-c2ccc(-c3ccc(C(=O)NCC(O)CN)cc3)o2)cc1 (configuration not stated)
> 100 µM (inactive)

---

Reported GI50 by item:
# Tested on: UACC-257
# Test Details: NCI tumour cell line growth inhibition, 48 h
Activity calls are given as the source filed them. Cut-off read from the data, not from the text of the source: active = GI50 up to about 1.1 µM and inactive = higher.

// known answers, use as guide
compound=O=C1c2c(c3c4ccccc4n4c3c3c2c2ccccc2n3C/C=C\C4)C(=O)N1Cc1ccccc1 test_target=UACC-257 endpoint_value="> 100 µM (inactive)"
compound="Cn1c(=O)c2c(nc3n2CC(C(=O)O)N3)n(C)c1=O (centres undefined)" test_target=UACC-257 endpoint_value="> 100 µM (inactive)"
compound="Cc1ccc(/N=N/N(C)C(C)C(O)Cc2ccccc2)cc1 (centres undefined)" test_target=UACC-257 endpoint_value="84.9 µM (inactive)"

Please give the measured GI50 for this compound: CCOC(=O)c1cc2cc(CSc3ccccc3)ccc2oc1=O
> 100 µM (inactive)

Please give the measured GI50 for this compound: NC(=S)N/N=C(\Cc1nc2ccc(Cl)cc2nc1O)C(=O)Nc1ccc(Cl)cc1
> 100 µM (inactive)

Please give the measured GI50 for this compound: CC(=O)OC1C/C(C)=C/CCC(C)/C=C/C2(C)CCC(C(C)(C)O)C12 (centres undefined)
26.1 µM (inactive)

Please give the measured GI50 for this compound: CC(C)=CCC[C@@H](C)C1=C(O)C(=O)C(C)=C(N)C1=O
38.5 µM (inactive)
